# Target Or Test System: WT human STING isoform (THP-1-Dual KI-hSTING-R232 cells) (Homo sapiens (Human), UniProt Q86WV6, H232R)
# Sequence (Q86WV6 whole entry H232R, canonical isoform): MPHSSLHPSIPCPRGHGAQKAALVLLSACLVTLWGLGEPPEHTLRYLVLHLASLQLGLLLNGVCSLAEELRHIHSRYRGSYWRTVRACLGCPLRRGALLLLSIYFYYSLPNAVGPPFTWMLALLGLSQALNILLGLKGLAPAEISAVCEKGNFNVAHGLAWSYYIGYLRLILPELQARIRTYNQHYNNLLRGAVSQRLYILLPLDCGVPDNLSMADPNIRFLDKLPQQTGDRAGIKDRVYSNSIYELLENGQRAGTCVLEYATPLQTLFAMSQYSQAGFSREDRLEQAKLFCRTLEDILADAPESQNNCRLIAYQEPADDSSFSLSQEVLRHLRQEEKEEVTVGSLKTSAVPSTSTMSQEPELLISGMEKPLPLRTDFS
# Test Name: THP-1-Dual KI-hSTING-R232 reporter cell line assay
# Test Settings: 24 h incubation, QUANTI-Luc luminescence
Measurement Kind: pEC50
Give bare numbers, as −log10 of the molar value.

{"Molecule": "COc1c(C(N)=O)ccc2c1nc(-c1c(I)cccc1C(=O)O)n2CCn1c(-c2c(I)cccc2C(=O)O)nc2c(OC)c(C(N)=O)ccc21 (single isomer, unassigned) [Example 19.2]", "pEC50": 4.93}

Now turn to the next molecule.
Q: # input molecule: COc1c(C(N)=O)cc(F)c2c1nc(-c1ccc(Cl)cc1C(=O)O)n2CCn1c(-c2ccc(Cl)cc2C(=O)O)nc2c(OC)c(C(N)=O)cc(F)c21 ; wanted: its pEC50
A: 5.56

----------
# Target Or Test System: human STING (WT) (Homo sapiens (Human), UniProt Q86WV6, H232R)
# Sequence (Q86WV6 other isoform, or with tags, fused parts or gaps, stated change not applied): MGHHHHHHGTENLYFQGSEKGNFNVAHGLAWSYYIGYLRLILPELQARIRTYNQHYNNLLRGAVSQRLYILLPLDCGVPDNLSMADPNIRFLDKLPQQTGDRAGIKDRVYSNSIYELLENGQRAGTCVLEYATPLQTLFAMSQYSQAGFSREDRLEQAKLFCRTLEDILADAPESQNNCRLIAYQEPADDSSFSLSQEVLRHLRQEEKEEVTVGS
# Test Name: Differential scanning fluorimetry (DSF), huSTING (WT)
# Format: binding
# Test Settings: 2 μM protein, compound 100 μM; Tm with ligand minus Tm of protein alone (1% DMSO); read-out: DSF huSTING (WT) ΔTm (° C.)
Measurement Kind: ΔTm at 100 µM (°C)
Answers are plain numbers, in °C.

Example entries begin here.
{"Molecule": "COc1c(C(N)=O)ccc2c1nc(-c1cc(Cl)ccc1-c1nn[nH]n1)n2CCn1c(-c2cc(Cl)ccc2-c2nn[nH]n2)nc2c(OC)c(C(N)=O)ccc21", "Units Text": "°C", "ΔTm at 100 µM": 2.04}
{"Molecule": "COc1c(C(N)=O)ccc2c1nc(-c1cc(C)ccc1C(=O)O)n2CCn1c(-c2cc(C)ccc2C(=O)O)nc2c(OC)c(C(N)=O)ccc21", "Units Text": "°C", "ΔTm at 100 µM": 1.13}

Now turn to the next molecule.
Q: # input molecule: COc1c(C(N)=O)ccc2c1nc(-c1c(Cl)cccc1-c1nn[nH]n1)n2CCn1c(-c2c(Cl)cccc2-c2nn[nH]n2)nc2c(OC)c(C(N)=O)ccc21 (single isomer, unassigned) ; wanted: its ΔTm at 100 µM
A: 15

----------
# Target Or Test System: human STING (WT) (Homo sapiens (Human), UniProt Q86WV6, H232R)
# Test Name: Surface plasmon resonance (SPR), STING (WT)
# Test Settings: biotinylated STING on streptavidin chip, 8° C.
What Kd was measured for each of the following?
Give bare numbers, in µM.

Example entries begin here.
{"Molecule": "COc1c(C(N)=O)ccc2c1nc(-c1c(F)cccc1-c1n[nH]c(=O)o1)n2CCn1c(-c2c(F)cccc2-c2n[nH]c(=O)o2)nc2c(OC)c(C(N)=O)ccc21", "Kd / µM": 0.755}
{"Molecule": "COc1c(C(N)=O)ccc2c1nc(-c1ccc(Cl)cc1-c1cn[nH]n1)n2CCn1c(-c2ccc(Cl)cc2-c2cn[nH]n2)nc2c(OC)c(C(N)=O)ccc21", "Kd / µM": 102}
{"Molecule": "COc1c(C(N)=O)ccc2c1nc(-c1c(Cl)cccc1C(=O)O)n2CCn1c(-c2c(Cl)cccc2C(=O)O)nc2c(OC)c(C(N)=O)ccc21 (racemic)", "Kd / µM": 0.077}
{"Molecule": "COc1c(C(N)=O)ccc2c1nc(-c1cc(Cl)ccc1-c1nn[nH]n1)n2CCn1c(-c2cc(Cl)ccc2-c2nn[nH]n2)nc2c(OC)c(C(N)=O)ccc21", "Kd / µM": 139}
{"Molecule": "COc1c(C(N)=O)ccc2c1nc(-c1cccc(Cl)c1-c1nn[nH]n1)n2CCn1c(-c2cccc(Cl)c2-c2nn[nH]n2)nc2c(OC)c(C(N)=O)ccc21", "Kd / µM": 180}

Q: # input molecule: COC(=O)c1c(Br)cccc1-c1nc2c(OC)c(C(N)=O)ccc2n1CCn1c(-c2cccc(Br)c2C(=O)OC)nc2c(OC)c(C(N)=O)ccc21 ; wanted: its Kd
A: 5.38
